- test name: RAM signaling pathway blockade in yeast – S. cerevisiae, Pdr1DBD-CYC8 efflux-inhibited sensitized strain, primary screen (AID 1298);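 note: 0% = DMSO untreated cells without growth and 100% = 10 µM 1-NA-PP1 full growth; higher means more yeast growth rescued from 5-FOA killing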
- condition details: S. cerevisiae cbk1-as DSE1-URA3 strain, 5-FOA growth OD615, 2 d; at 50 µM; active compounds read high
quantity measured: RAM network inhibition (%)
Give the value, in units of %, as a plain number.

Problem: Give the reported value of RAM network inhibition for this record: CC1(C)CCCC2=C1CC1C(=O)N(O)C(=O)C1C2 (stereo unspecified)
Result: 1.62

Problem: Could you please provide reported RAM network inhibition for CC1CCN(C(=O)CN2C(=O)C(=O)c3ccccc32)CC1 ? Thanks!
Result: 3.27
